- protocol.description: Oral bioavailability in rat at 15 mg/kg after 24 hrs
- Assay type: ADME, organism-based
- condition.description: in vivo
experimental.endpoint: bioavailability (%)
Numbers only, in %.

Endpoint output: bioavailability of C=C[C@@H]1C[C@]1(NC(=O)[C@@H]1C[C@@](OC)(c2ccc(-c3ccccc3)cc2)CN1C(=O)[C@@H](NC(=O)OC(C)(C)C)C(C)(C)C)C(=O)NS(=O)(=O)C1CC1 . Value?
58

* * *

- System: Heart
- protocol.description: Cardiotoxicity in Langendorff perfused rabbit heart assessed as sinoatrial node recovery time at 10 uM perfused for 10 mins (reference value: 3 +/- 1%)
- Format: toxicity, tissue-based, Oryctolagus cuniculus
experimental.endpoint: Activity (%)
Give bare numbers, in %.

Known results for molecules:
C=C[C@@H]1C[C@]1(NC(=O)[C@@H]1C[C@@H](Oc2nccc3cc(OC)ccc23)CN1C(=O)[C@@H](NC(=O)OC(C)(C)C)C(C)(C)C)C(=O)NS(=O)(=O)C1CC1
69
C=C[C@@H]1C[C@]1(NC(=O)[C@@H]1C[C@@](OC)(c2ccc(-c3ccccc3)cc2)CN1C(=O)[C@@H](NC(=O)OC(C)(C)C)C(C)(C)C)C(=O)NS(=O)(=O)C1CC1
8
C=C[C@@H]1C[C@]1(NC(=O)[C@@H]1C[C@@](O)(c2ccc(-c3ccccc3)cc2)CN1C(=O)[C@@H](NC(=O)OC(C)(C)C)C(C)(C)C)C(=O)NS(=O)(=O)C1CC1
2

Would you kindly look at the next entry?
Endpoint output: Activity of C=C[C@@H]1C[C@]1(NC(=O)[C@@H]1C[C@@H](Oc2ncc(OC)c3ccc(Cl)cc23)CN1C(=O)[C@@H](NC(=O)OC(C)(C)C)C(C)(C)C)C(=O)NS(=O)(=O)C1CC1 . Value?
-1
